All values here come from ChEMBL document CHEMBL1122845.

Recorded measurements of pIC50, one per entry
- Organism: Homo sapiens
- PROTOCOL_SUMMARY: In vitro inhibitory activity against human platelet aggregation in the presence of collagen
- Assay type: functional
Scale note: pIC50 = -log10(concentration in M).

COMPOUND	pIC50
O=c1c2ccccc2sn1CCc1ccccn1	4.92
O=c1c2ccccc2sn1CCN1CCCC1	4.52
O=C1C(CC[S+]([O-])c2ccccc2)C(=O)N(c2ccccc2)N1c1ccccc1 (stereo not given) [SULFINPYRAZONE]	3.06

Consider the compound shown here: O=c1c2ccccc2sn1CCCN1CCCCC1 What is its recorded pIC50?
4.77

Consider the compound shown here: O=c1[nH]sc2ccccc12 What is its recorded pIC50?
4.47

* * *

Recorded measurements of pIC50, one per entry
- Species on record: Homo sapiens
- PROTOCOL_SUMMARY: In vitro inhibitory activity against human platelet aggregation in the presence of Adenosine diphosphate
- Assay type: functional
Scale note: pIC50 = -log10(concentration in M).

STRUCTURE_AS_SMILES	RECORDED_VALUE
COc1cc2sn(CCCCN3CC4CCC(CC4)C3)c(=O)c2cc1OC	4.00

Attention now turns to another entry.
Consider the molecule shown here: O=c1c2ccccc2sn1CCc1ccccn1 What is its recorded pIC50?
4.70

* * *

- System: Cavia porcellus
- PROTOCOL_SUMMARY: The compound was tested ex vivo at a dose of 0.15 mmol/kg for collagen induced platelet aggregation in guinea pig
- Type: functional
Recorded measurements of collagen EC50 dose ratio (treated/control), one per entry
API doc: respond with a numeric literal and nothing else, no unit.

STRUCTURE_AS_SMILES	RECORDED_VALUE
COc1cc2sn(CCc3ccccn3)c(=O)c2cc1OC	1.5

Recall the recorded collagen EC50 dose ratio (treated/control) for COc1cc2sn(CCN3CCCCC3)c(=O)c2cc1OC with Cavia porcellus and state it.
7.3

Recall the recorded collagen EC50 dose ratio (treated/control) for COc1cc2sn(CCCCc3ccccn3)c(=O)c2cc1OC with Cavia porcellus and state it.
2.7

Recall the recorded collagen EC50 dose ratio (treated/control) for Cc1cc2sn(CCc3ccccn3)c(=O)c2cc1C with Cavia porcellus and state it.
0.8

* * *

- Test system: Cavia porcellus
- PROTOCOL_SUMMARY: Ex vivo inhibition of ADP induced guinea pig platelet aggregation following 0.08 mmol/kg administration.
- Format: functional
QUANTITY_NAME: Activity
API doc: respond with a numeric literal and nothing else, no unit.

Illustrative cases are given below, each with its answer.
STRUCTURE_AS_SMILES	Activity
COc1cc2sn(CCCCN3CCCCC3)c(=O)c2cc1OC	1.1
O=c1c2ccccc2sn1CCCCN1CC2CCC(CC2)C1	1.6
O=c1c2ccccc2sn1CCCCN1CCCC1	1.4
COc1cc2sn(CCCCN3CC4CCC(CC4)C3)c(=O)c2cc1OC	2.6

Consider the compound shown here: O=c1c2ccccc2sn1CCCCN1CCOCC1 What is its recorded Activity?
1.1

Consider the compound shown here: COc1cc2sn(CCCN3CCCCC3)c(=O)c2cc1OC What is its recorded Activity?
1.1

Consider the compound shown here: O=c1c2ccccc2sn1CCCN1CC2CCC(CC2)C1 What is its recorded Activity?
1.2

Consider the compound shown here: COc1cc(OC)c2c(=O)n(CCN3CCCC3)sc2c1 What is its recorded Activity?
4.6

Consider the compound shown here: Cc1cc(C)c2c(=O)n(CCCN3CCCCC3)sc2c1 What is its recorded Activity?
1.4

Consider the compound shown here: O=c1c2ccccc2sn1CCCN1CCCCC1 What is its recorded Activity?
3.7

Consider the compound shown here: O=c1c2ccccc2sn1CCN1CCCCC1 What is its recorded Activity?
1.4
